- TARGET_UNDER_TEST: FAAH (Homo sapiens, UniProt O00519)
- Construct: FAAH activity was assayed in the respective homogenates (Rat brain or Human brain); tissue Analytical Biological Services (ABS), Inc; host or cells: human brain cortex membrane homogenate, pooled from three donors
- Sequence (O00519 whole entry): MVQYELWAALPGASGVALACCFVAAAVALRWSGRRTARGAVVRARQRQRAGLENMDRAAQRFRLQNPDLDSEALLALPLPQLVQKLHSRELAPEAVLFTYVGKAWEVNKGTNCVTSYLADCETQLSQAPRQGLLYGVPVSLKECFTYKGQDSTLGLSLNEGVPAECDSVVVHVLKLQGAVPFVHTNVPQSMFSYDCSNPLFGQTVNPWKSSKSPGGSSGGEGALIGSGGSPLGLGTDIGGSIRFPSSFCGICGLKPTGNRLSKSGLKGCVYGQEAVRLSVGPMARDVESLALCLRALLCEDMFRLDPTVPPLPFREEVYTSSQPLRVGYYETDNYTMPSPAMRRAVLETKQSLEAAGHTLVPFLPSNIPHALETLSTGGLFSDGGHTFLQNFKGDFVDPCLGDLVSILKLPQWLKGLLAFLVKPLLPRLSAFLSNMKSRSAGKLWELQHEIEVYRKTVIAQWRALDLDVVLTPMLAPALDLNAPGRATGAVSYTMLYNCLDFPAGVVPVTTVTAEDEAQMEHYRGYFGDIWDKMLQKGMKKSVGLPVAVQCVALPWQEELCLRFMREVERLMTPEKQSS
- ASSAY_TEXT: FAAH activity in human brain membrane (HBM) homogenate, 3H-anandamide hydrolysis
- Type: biochemical
- EXPERIMENTAL_CONTEXT: 10 min at 37° C., pH 6.5
METRIC_NAME: IC50 (µM)

| SMI | METRIC_NAME | UOM | ENDPOINT_RESULT |
| --- | --- | --- | --- |
| COc1ccc2c(c1)c(CC(=O)O)c(C)n2C(=O)c1ccc(Cl)cc1 | IC50 | µM | 96 |

[a] CS(=O)(=O)c1ccc(C2=C(c3ccccc3)C(=O)OC2)cc1
[b] Cc1onc(-c2ccccc2)c1-c1ccc(S(N)(=O)=O)cc1
IN: Choose between a and b : whose measured IC50 value is numerically larger? Pick one and reply with its label.
OUT: a
(a: 198 µM, b: 41 µM)
